Target: PI3K-alpha (Homo sapiens, UniProt P42336)
Sequence (P42336 whole entry, species assumed): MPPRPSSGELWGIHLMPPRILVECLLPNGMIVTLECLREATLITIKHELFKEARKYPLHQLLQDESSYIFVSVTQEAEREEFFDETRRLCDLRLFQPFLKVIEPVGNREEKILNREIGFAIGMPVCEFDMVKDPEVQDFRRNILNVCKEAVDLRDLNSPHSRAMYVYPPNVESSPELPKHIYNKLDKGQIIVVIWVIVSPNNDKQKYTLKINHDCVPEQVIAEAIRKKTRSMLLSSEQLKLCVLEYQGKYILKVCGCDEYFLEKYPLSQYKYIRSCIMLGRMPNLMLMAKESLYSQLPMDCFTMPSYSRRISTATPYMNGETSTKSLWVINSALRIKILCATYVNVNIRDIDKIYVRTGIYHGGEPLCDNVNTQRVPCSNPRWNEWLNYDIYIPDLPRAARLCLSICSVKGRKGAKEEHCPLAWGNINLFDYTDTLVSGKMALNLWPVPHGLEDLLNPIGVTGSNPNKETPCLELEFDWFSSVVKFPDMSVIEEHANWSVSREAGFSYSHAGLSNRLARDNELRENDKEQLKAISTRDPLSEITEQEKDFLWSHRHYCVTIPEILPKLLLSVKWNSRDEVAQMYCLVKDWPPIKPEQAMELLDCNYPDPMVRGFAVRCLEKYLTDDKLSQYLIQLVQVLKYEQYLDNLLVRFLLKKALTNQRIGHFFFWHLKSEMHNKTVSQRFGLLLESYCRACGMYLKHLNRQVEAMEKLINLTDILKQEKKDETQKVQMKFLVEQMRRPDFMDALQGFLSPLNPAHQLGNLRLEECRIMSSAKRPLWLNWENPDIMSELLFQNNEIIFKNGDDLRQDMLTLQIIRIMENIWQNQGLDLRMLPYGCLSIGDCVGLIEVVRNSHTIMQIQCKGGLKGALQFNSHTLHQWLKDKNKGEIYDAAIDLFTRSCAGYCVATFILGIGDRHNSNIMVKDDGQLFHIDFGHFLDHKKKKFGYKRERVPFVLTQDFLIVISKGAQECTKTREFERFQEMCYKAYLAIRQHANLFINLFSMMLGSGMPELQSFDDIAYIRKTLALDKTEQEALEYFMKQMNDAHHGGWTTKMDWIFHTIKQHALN
Sequence (P27986 whole entry partner, species assumed): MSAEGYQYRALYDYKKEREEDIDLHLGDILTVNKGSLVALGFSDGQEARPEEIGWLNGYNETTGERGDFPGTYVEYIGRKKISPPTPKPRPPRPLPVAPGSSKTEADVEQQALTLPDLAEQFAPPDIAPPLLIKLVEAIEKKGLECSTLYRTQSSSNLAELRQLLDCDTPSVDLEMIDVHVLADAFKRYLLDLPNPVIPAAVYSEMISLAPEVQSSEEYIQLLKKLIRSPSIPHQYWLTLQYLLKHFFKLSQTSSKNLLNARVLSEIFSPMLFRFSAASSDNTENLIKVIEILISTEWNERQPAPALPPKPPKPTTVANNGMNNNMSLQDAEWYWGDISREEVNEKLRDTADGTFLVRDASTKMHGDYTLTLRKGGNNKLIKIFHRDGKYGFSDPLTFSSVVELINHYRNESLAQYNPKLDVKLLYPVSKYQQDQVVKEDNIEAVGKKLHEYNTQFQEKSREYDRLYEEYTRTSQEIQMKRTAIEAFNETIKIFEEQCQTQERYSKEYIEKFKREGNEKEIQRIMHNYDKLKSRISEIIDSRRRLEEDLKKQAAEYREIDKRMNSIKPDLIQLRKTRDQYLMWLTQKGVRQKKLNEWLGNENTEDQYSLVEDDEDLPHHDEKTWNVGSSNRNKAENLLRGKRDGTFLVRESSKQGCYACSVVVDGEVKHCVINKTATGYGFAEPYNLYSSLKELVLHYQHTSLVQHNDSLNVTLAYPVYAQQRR
Test: PI3K-alpha fluorescence polarization assay
Format: biochemical
Settings: read-out: PI3Kα Avg. IC50
parameter_measured: IC50 (nM)

Known results for molecules:
• CNC(=O)Nc1ccc2c(c1)C(=O)/C(=C/c1c(-c3cn(C)nc3C)[nH]c3ccc(OC)cc13)O2 = 1.25
• Cn1cc(C=C2Oc3cc(O)cc(O)c3C2=O)c2ccc(C(F)(F)F)cc21 = 2480
• COc1ccc2c(c1)c(C=C1Oc3c(ccc(O)c3O)C1=O)c(C)n2CCCCl = 64.5

I. COc1ccc2c(c1)c(/C=C1\Oc3cc(O)c(Br)cc3C1=O)c(C)n2CCN1CCN(C)CC1
II. COc1ccc2c(c1)c(/C=C1\Oc3ccc(NC(=O)NC4CC4)cc3C1=O)cn2CCCN(C)C
III. CNC(=O)Nc1ccc2c(c1)C(=O)/C(=C/c1c(Br)[nH]c3ccc(OC)cc13)O2
IV. COc1ccc2c(c1)c(/C=C1\Oc3cc(O)ccc3C1=O)c(C(=O)N1CCOCC1)n2CCN1CCN(C)CC1
V. O=C1C(=Cc2c[nH]c3cc(Br)ccc23)Oc2cc(O)cc(O)c21
Ascending by IC50, please: list the molecules accordingly. // ordering of labels required in reply
III, IV, I, II, V

---

Biological target: human TOR (Homo sapiens)
Construct: FLAG
Assay: mTOR enzyme assay (DELFIA, His6-S6K substrate)
Format: biochemical
Conditions: read-out: mTOR Kinase Avg. IC50
pIC50: −log10 of the molar value.
parameter_measured: pIC50

Known results for molecules:
* CNC(=O)Nc1ccc2c(c1)C(=O)/C(=C/c1c(-c3c(C)nn(C)c3C)[nH]c3c(F)c(F)c(OC)cc13)O2 | 7.35
* Cn1cc(C=C2Oc3cc(O)cc(O)c3C2=O)c2c(OCc3ccccc3)cccc21 | 6.55

A. Cn1c(-c2ccc(Cl)cc2)c(C=C2Oc3cc(O)cc(O)c3C2=O)c2ccccc21
B. CCN1CCN(C(=O)c2ccc(NC(=O)Nc3ccc4c(c3)C(=O)/C(=C/c3c(-c5c(C)nn(C)c5C)[nH]c5ccc(OC)cc35)O4)cc2)CC1
// pick min by pIC50: A , B Answer by quoting the chosen item's label.
A
(A: 6.92, B: 8.30)

---

Biological target: human TOR (Homo sapiens, UniProt P42345)
Construct: FLAG
Test: mTOR enzyme assay (DELFIA, His6-S6K substrate)
Format: biochemical
Details: read-out: mTOR Kinase Avg. IC50
pIC50: −log10 of the molar value.
parameter_measured: pIC50

* COc1ccc2c(c1)c(/C=C1\Oc3cc(O)ccc3C1=O)c(-c1c(C)noc1C)n2CCN1CCN(C)CC1 | 6.78

a. COc1ccc2c(c1)c(/C=C1\Oc3ccc(NC(=O)Nc4cccnc4)cc3C1=O)c(C)n2CCN1CCN(C)CC1 [Compound 617]
b. COc1cc2c(C=C3Oc4cc(O)cc(O)c4C3=O)c(C)[nH]c2cc1C
I need your help: which of the pair a , b has higher pIC50? Answer by quoting the chosen item's label.
a
(a: 7.24, b: 6.72)

---

Biological target: PI3K-gamma (Homo sapiens)
Sequence (P48736 whole entry, species assumed): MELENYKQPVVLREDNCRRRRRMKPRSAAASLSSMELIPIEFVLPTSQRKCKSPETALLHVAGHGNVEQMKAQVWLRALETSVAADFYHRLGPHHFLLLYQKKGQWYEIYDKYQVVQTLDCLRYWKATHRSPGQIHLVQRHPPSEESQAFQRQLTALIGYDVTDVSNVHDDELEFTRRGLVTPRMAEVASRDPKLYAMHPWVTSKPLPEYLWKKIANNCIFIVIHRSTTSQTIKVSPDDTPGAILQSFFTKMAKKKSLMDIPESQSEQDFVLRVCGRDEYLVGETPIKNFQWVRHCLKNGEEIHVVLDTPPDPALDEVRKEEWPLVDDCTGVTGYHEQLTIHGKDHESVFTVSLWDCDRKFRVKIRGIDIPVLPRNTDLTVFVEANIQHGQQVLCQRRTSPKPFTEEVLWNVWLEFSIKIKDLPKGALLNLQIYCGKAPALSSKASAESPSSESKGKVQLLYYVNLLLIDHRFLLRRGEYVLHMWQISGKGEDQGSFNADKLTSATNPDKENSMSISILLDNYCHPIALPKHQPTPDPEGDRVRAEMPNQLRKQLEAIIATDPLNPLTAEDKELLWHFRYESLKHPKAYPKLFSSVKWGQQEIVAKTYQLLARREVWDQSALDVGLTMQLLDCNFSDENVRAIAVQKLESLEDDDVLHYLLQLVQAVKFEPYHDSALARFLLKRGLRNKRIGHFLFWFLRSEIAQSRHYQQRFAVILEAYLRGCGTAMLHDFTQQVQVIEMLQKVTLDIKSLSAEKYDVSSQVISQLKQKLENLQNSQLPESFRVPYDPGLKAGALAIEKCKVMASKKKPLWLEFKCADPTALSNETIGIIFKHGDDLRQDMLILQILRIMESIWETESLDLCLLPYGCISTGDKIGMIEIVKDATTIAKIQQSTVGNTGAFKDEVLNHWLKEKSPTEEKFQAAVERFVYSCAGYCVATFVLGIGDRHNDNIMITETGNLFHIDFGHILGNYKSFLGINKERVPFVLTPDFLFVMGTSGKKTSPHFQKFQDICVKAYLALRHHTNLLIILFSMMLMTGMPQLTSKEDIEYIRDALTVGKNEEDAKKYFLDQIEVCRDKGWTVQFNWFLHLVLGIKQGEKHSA
Experiment: PI3K-gamma fluorescence polarization assay
Type: biochemical
Details: PI3Kγ Avg. IC50
Experimental: PI3K-Alpha, PI3K-Beta, PI3K-Gamma, and PI3K-delta Fluorescence Polarization Assay Protocols PI3-Kinase reactions were performed in 5 mM HEPES, pH 7, 2.5 mM MgCl2, and 25 μM ATP, with diC8-PI(4,5)P2 (Echelon, Salt Lake City Utah) as substrate. Nunc 384-well black polypropylene fluorescent plates were used for PI3K assays. […] Assay Plates were read on Perkin-Elmer Envision plate readers with appropriate filters for Tamra [BODIPY-TMRI(1,3,4,5)P4]. […]
pIC50: −log10 of the molar value.
parameter_measured: pIC50

Known results for molecules:
* CNC(=O)Nc1ccc2c(c1)C(=O)/C(=C/c1c(C)n(CCN(C)C)c3ccc(OC)cc13)O2 [Compound 610] | 6.97
* CCn1c(C)c(/C=C2\Oc3ccc(NC(=O)Nc4ccc(C(=O)N5CCC(N(C)C)CC5)cc4)cc3C2=O)c2cc(OC)ccc21 [Compound 650] | 8.52
* CNCCNC(=O)c1ccc(NC(=O)Nc2ccc3c(c2)C(=O)/C(=C/c2c(C)n(CCN4CCN(C)CC4)c4ccc(OC)cc24)O3)cc1 [Compound 669] | 7.54

1. COc1ccc2[nH]c(-c3c(C)nn(C)c3C)c(/C=C3\Oc4ccc(NC(=O)Nc5ccc(C(=O)N(C)C)cc5)cc4C3=O)c2c1 [Compound 704]
2. CN(C)CCCNC(=O)c1ccc(-c2cccc3c2c(/C=C2\Oc4cc(O)cc(O)c4C2=O)cn3C)cc1 [Example 387]
3. O=C1C(=Cc2c(-c3ccc(O)cc3)[nH]c3ccccc23)Oc2cc(O)cc(O)c21 [Example 206]
4. CCn1c(C)c(/C=C2\Oc3ccc(NC(=O)Nc4ccc(CN(C)C)cc4)cc3C2=O)c2cc(OC)ccc21 [Compound 719]
Arrange the 4 molecules from largest to smallest pIC50. // ordering of labels required in reply
1, 4, 3, 2
